# target-or-system: α2C (Homo sapiens, UniProt P18825)
# Sequence (P18825 whole entry): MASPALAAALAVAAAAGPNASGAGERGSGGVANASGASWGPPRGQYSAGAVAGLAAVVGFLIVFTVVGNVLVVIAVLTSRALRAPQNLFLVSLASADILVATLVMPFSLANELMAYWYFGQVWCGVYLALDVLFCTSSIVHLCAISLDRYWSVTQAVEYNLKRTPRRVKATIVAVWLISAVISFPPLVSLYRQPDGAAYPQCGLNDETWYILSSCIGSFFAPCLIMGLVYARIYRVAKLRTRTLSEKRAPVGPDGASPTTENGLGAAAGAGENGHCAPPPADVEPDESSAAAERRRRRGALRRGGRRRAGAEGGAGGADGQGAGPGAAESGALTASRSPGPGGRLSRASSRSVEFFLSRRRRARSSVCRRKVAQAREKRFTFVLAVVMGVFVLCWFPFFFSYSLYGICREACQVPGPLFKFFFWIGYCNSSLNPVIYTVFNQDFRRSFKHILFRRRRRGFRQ
# method: FLIPR intracellular calcium assay, α2C
# Format: cell-based
# setup-conditions: FLIPR, fluo-3 calcium; NA = not active; read-out: α2C potency (EC50)
pEC50: −log10 of the molar value.
The label depends only on pEC50: YES if it is at least 7, NO if it is smaller.

Example results:
C#CC(NC1=NCCO1)c1ccccc1Br (stereo not drawn)    NO
C#CC(CC(C)C)NC1=NCCO1 (stereo not drawn)    YES
C#CC(C)NC1=NCCO1 (stereo not drawn)    YES
C#CC(CC)NC1=NCCO1 (stereo not drawn)    YES
C#CC(NC1=NCCO1)c1cccc(Cl)c1 (stereo not drawn)    NO

// next entry
In: // inclusive: pEC50 at least 7? input: C#CC(NC1=NCCO1)c1cccc(F)c1F (stereo not drawn)
Out: YES

====

Measured pEC50 of individual entries
# target-or-system: α1A (UniProt P35348)
# method: FLIPR intracellular calcium assay, α1A
# setup-conditions: FLIPR, fluo-3 calcium; NA = not active; read-out: α1A potency (EC50)
# Protocol: Selected examples were tested via the intracellular calcium assay known as Fluorometric Imaging Plate Reader (FLIPR) which involves the detection of calcium pulses by fluo-3 for analyzing function proximal to α1 receptor activation. […] The compound's activity is expressed as its relative efficacy compared to a standard full agonist.
Quick note: pEC50 values are minus log10 of concentrations in mol/L.

Value sought: pEC50, system α1A (UniProt P35348), item C#CC(NC1=NCCO1)c1cccc(Cl)c1 (stereo not drawn) . Result: 6.39

Value sought: pEC50, system α1A (UniProt P35348), item C#CC(NC1=NCCO1)c1cccc(F)c1F (stereo not drawn) . Result: 7.39

Value sought: pEC50, system α1A (UniProt P35348), item C#CC(CCC)NC1=NCCO1 (stereo not drawn) . Result: 5.52

Value sought: pEC50, system α1A (UniProt P35348), item C#CC(CC)NC1=NCCO1 (stereo not drawn) . Result: 5.18

====

# target-or-system: α2B (Homo sapiens)
# method: FLIPR intracellular calcium assay, α2B
# Assay type: cell-based
# setup-conditions: value in parentheses; relative to a standard full agonist
parameter: α2B relative efficacy

Check out these entries, answers already filled in.
C#CC(NC1=NCCO1)C1CC1 (centres unmarked)    0.71
C#CC(NC1=NCCO1)c1ccccc1Br (centres unmarked)    0.36

Measured α2B relative efficacy of C#CC(CCC)NC1=NCCO1 (centres unmarked) : 0.68

====

Measured pEC50 of individual entries
# target-or-system: α2B (Homo sapiens, UniProt P18089)
# Sequence (P18089 1-450): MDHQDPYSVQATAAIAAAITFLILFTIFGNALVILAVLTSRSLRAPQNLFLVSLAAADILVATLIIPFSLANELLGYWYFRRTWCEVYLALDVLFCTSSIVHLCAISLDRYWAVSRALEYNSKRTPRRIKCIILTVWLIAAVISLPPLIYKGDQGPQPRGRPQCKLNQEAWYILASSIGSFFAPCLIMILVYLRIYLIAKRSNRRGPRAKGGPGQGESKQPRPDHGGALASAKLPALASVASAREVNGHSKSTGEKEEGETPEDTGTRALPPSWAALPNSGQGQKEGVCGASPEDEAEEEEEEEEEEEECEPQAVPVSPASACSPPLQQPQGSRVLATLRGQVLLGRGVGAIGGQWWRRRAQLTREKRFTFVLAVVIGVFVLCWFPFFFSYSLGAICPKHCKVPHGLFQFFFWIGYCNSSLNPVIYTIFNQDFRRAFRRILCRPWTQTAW
# method: FLIPR intracellular calcium assay, α2B
# setup-conditions: FLIPR, fluo-3 calcium; NA = not active; read-out: α2B potency (EC50)
Quick note: pEC50 values are minus log10 of concentrations in mol/L.

Check out these entries, answers already filled in.
C#CC(NC1=NCCO1)c1ccccc1Br (stereo not shown)    6.44
C#CC(CCC)NC1=NCCO1 (stereo not shown)    6.41
N#CC(NC1=NCCO1)c1ccccc1 (stereo not shown)    6.67

Value sought: pEC50, system α2B (Homo sapiens, UniProt P18089), item `C#C[C@H](NC1=NCCO1)C(C)C` . Result: 7.19

Value sought: pEC50, system α2B (Homo sapiens, UniProt P18089), item C#CC(CC)NC1=NCCO1 (stereo not shown) . Result: 7.04

Value sought: pEC50, system α2B (Homo sapiens, UniProt P18089), item C#CC(CC(C)C)NC1=NCCO1 (stereo not shown) . Result: 6.48

====

# target-or-system: α1B (UniProt P35368)
# method: FLIPR intracellular calcium assay, α1B
# Assay type: cell-based
# setup-conditions: FLIPR, fluo-3 calcium; NA = not active; read-out: α1B potency (EC50)
pEC50: −log10 of the molar value.
parameter: pEC50

Measured pEC50 of C#CC(CCC)NC1=NCCO1 (centres unmarked) : < 5.00

Measured pEC50 of C#CC(NC1=NCCO1)c1ccccc1Br (centres unmarked) : < 5.00

Measured pEC50 of C#CC(NC1=NCCO1)C1CC1 (centres unmarked) : < 5.00

Measured pEC50 of C#CC(NC1=NCCO1)c1cccc(F)c1F (centres unmarked) : 5.46

Measured pEC50 of `C#C[C@H](NC1=NCCO1)C(C)C` : 5.23

Measured pEC50 of C#CC(NC1=NCCO1)c1cccc(Cl)c1 (centres unmarked) : 5.27

Measured pEC50 of C#CC(CC(C)C)NC1=NCCO1 (centres unmarked) : < 5.00

Measured pEC50 of C#CC(C)NC1=NCCO1 (centres unmarked) : < 5.00

====

Measured α1A relative efficacy of individual entries
# target-or-system: α1A (UniProt P35348)
# method: FLIPR intracellular calcium assay, α1A
# Type: cell-based
# setup-conditions: value in parentheses; relative to a standard full agonist
Hey, just send me the number, nothing else.

Check out these entries, answers already filled in.
C#CC(CC(C)C)NC1=NCCO1 (stereo not drawn)    0.59
C#CC(NC1=NCCO1)c1cccc(F)c1F (stereo not drawn)    0.96
N#CC(NC1=NCCO1)c1ccccc1 (stereo not drawn)    0.99
C#CC(CC)NC1=NCCO1 (stereo not drawn)    0.78
C#CC(NC1=NCCO1)c1cccc(Cl)c1 (stereo not drawn)    0.81
C#CC(NC1=NCCO1)c1ccccc1Br (stereo not drawn)    0.34

Value sought: α1A relative efficacy, system α1A (UniProt P35348), item C#CC(CCC)NC1=NCCO1 (stereo not drawn) . Result: 0.72

Value sought: α1A relative efficacy, system α1A (UniProt P35348), item `C#C[C@H](NC1=NCCO1)C(C)C` . Result: 0.93

====

# target-or-system: α2C (Homo sapiens, UniProt P18825)
# method: FLIPR intracellular calcium assay, α2C
# Type: cell-based
# setup-conditions: value in parentheses; relative to a standard full agonist
parameter: α2C relative efficacy
Hey, just send me the number, nothing else.

Check out these entries, answers already filled in.
N#CC(NC1=NCCO1)c1ccccc1 (centres unmarked)    0.76
C#CC(CCC)NC1=NCCO1 (centres unmarked)    0.99
C#CC(NC1=NCCO1)c1cccc(Cl)c1 (centres unmarked)    0.78
C#CC(CC(C)C)NC1=NCCO1 (centres unmarked)    0.98
C#CC(C)NC1=NCCO1 (centres unmarked)    0.89

Measured α2C relative efficacy of C#CC(NC1=NCCO1)c1cccc(F)c1F (centres unmarked) : 0.88

Measured α2C relative efficacy of C#CC(NC1=NCCO1)C1CC1 (centres unmarked) : 0.89

====

# target-or-system: α2A (Homo sapiens, UniProt P08913)
# Sequence (P08913 1-465): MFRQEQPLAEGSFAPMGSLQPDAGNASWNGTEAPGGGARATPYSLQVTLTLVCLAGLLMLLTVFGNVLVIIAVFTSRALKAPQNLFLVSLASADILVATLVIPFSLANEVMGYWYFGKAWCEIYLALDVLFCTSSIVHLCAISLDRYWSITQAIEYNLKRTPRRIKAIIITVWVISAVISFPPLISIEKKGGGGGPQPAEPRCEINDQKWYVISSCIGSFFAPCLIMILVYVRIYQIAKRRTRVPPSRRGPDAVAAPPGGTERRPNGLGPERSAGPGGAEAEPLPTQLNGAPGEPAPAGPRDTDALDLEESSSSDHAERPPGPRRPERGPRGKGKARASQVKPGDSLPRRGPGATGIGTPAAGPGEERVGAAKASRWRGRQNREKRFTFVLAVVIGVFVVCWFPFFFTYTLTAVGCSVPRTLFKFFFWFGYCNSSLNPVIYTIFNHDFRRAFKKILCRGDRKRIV
# method: FLIPR intracellular calcium assay, α2A
# setup-conditions: FLIPR, fluo-3 calcium; NA = not active; read-out: α2A potency (EC50)
pEC50: −log10 of the molar value.
The label depends only on pEC50: TRUE if it is at least 7, FALSE if it is smaller.

C#CC(CC(C)C)NC1=NCCO1 (stereo not shown)    FALSE

In: // inclusive: pEC50 at least 7? input: C#CC(NC1=NCCO1)c1ccccc1Br (stereo not shown)
Out: FALSE

In: // inclusive: pEC50 at least 7? input: C#CC(CC)NC1=NCCO1 (stereo not shown)
Out: TRUE

In: // inclusive: pEC50 at least 7? input: C#CC(NC1=NCCO1)c1cccc(F)c1F (stereo not shown)
Out: TRUE

In: // inclusive: pEC50 at least 7? input: C#CC(C)NC1=NCCO1 (stereo not shown)
Out: FALSE

In: // inclusive: pEC50 at least 7? input: C#CC(CCC)NC1=NCCO1 (stereo not shown)
Out: FALSE

In: // inclusive: pEC50 at least 7? input: C#CC(NC1=NCCO1)C1CC1 (stereo not shown)
Out: FALSE

In: // inclusive: pEC50 at least 7? input: N#CC(NC1=NCCO1)c1ccccc1 (stereo not shown)
Out: FALSE

In: // inclusive: pEC50 at least 7? input: `C#C[C@H](NC1=NCCO1)C(C)C`
Out: TRUE
